Target Entity: pre-existing anti-drug antibodies (ADA) present in human sera
Assay Protocol: pre-existing ADA ELISA, scFv coated, human sera unspiked vs spiked
Endpoint Label: No of serum samples >30% inhibition (30% CCP) without SCP (serum samples)
Please reply with the number alone, leaving off any unit.

Input: Tell me measured No of serum samples >30% inhibition (30% CCP) without SCP (serum samples) for PRO2230 (scFv 37-20-B03-sc09.1) (scFv, also called PRO2230 wt; a-PD-L1 wt) scFv: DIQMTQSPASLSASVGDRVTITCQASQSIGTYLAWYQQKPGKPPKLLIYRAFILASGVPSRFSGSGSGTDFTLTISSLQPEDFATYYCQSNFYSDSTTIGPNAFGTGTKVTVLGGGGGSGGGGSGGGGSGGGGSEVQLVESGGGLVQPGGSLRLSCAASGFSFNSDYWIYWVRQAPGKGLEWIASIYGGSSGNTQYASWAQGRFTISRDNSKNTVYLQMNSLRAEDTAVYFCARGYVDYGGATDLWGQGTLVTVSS please.
Output: 18

Input: Tell me measured No of serum samples >30% inhibition (30% CCP) without SCP (serum samples) for PRO3347 (scFv 54-21-H03-sc01_(T101S, T146S)) (scFv, PRO1922 variant; VH substitutions, AHo numbering; also called PRO1922 T101S-T146S) scFv: DIQMTQSPSSLSASVGDRVTITCQASESIYSSLAWYQQKPGKAPKLLIYLASTLASGVPSRFSGSGSGTDFTLTISSLQPEDFATYYCQSTDYTTSTHRNSFGTGTKVTVLGGGGGSGGGGSGGGGSGGGGSEVQLVESGGGLVQPGGSLRLSCAASGFSFSTTYYMCWVRQAPGKGLEWIGCTNTASSVRTYYATWAKGRFTISRDNSKNTVYLQMNSLRAEDSAVYYCARDMGFADYALNLWGQGTLVSVSS please.
Output: 3
